Item-by-item account of growth inhibition
assay: NCI Yeast Anticancer Drug Screen. Data for the rad50 strain (AID 155);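 note: 0% = growth of vehicle-only cultures of the same strain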; conditions: S. cerevisiae rad50 strain growth inhibition; at 50.0 µM; hits give high values
About 79,000 compounds went through this panel and 15% of them were active in at least one assay; those are over-represented in the sample as a whole.
Express your answer in %, writing the number without its unit.

Example results:
compound: BrCC1=CC(c2ccccc2)(c2ccccc2)c2ccccc21
measurement.name: growth inhibition
unit.text: %
reading: 96.2
--
compound: NCOC(=O)Cc1ccc(Br)cc1
measurement.name: growth inhibition
unit.text: %
reading: 14.8
--
compound: O=C(/C=C/c1ccccc1)NC1C=Nc2ccccc2NC1=O (stereo not drawn)
measurement.name: growth inhibition
unit.text: %
reading: 13.8
--
compound: CC1(CBr)COC(c2ccccc2)(C2CCCCC2)OC1 (stereo not drawn)
measurement.name: growth inhibition
unit.text: %
reading: -1.9
--
compound: CC(=O)O[C@H]1CC[C@]2(C)[C@H]3C(=O)C=C4[C@@H]5C[C@@](C)(C(=O)O)CC[C@]5(C)CC[C@@]4(C)[C@]3(C)CC[C@H]2C1(C)C
measurement.name: growth inhibition
unit.text: %
reading: 31.2
--
compound: c1cncc(CCc2ccncc2)c1
measurement.name: growth inhibition
unit.text: %
reading: -18.9
--
compound: O=c1oc(-c2ccccc2)c(-c2ccccc2)o1
measurement.name: growth inhibition
unit.text: %
reading: 43
--
compound: O=S(=O)(O)c1ccc[n+]([O-])c1
measurement.name: growth inhibition
unit.text: %
reading: 5.7
--
compound: O=C(O)CN1CCSc2ccccc2CN(CC(=O)O)CCSc2ccccc2C1
measurement.name: growth inhibition
unit.text: %
reading: 4.5
--
compound: O=S(=O)(/C=C/c1ccc(F)cc1)Cc1ccccc1
measurement.name: growth inhibition
unit.text: %
reading: -3.2

Query compound follows.
Q) Answer with reported growth inhibition of c1ccc(C(N=NC(c2ccccc2)c2ccccc2)c2ccccc2)cc1
A) 4.4
